- subject of test: Kappa-type opioid receptor (Homo sapiens, UniProt P41145)
- Sequence (P41145 whole entry): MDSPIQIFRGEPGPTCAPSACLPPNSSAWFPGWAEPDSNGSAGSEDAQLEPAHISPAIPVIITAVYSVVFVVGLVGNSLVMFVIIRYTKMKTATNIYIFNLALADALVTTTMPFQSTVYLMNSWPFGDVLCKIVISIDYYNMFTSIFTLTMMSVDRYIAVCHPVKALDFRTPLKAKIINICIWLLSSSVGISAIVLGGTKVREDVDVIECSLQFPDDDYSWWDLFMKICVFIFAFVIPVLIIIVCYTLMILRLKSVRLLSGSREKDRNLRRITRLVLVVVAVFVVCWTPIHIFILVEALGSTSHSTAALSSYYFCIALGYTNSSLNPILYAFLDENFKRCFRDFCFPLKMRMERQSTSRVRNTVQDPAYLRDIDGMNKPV
- method: Agonist activity at human KOR expressed in CHOK1 cells assessed as inhibition of forskolin-stimulated cAMP accumulation incubated for 30 mins by luminescence assay
pEC50: −log10 of the molar value.
experimental readout: pEC50

Tell me pEC50 reported for CCC[C@H]1[C@@H]2CCC[C@@]1(c1cccc(O)c1)CCN2CCc1ccccc1
< 5.00

Tell me pEC50 reported for COC(=O)CC[C@@H]1[C@H]2CCC[C@]1(c1cccc(O)c1)CCN2CCc1ccccc1
< 5.00

Tell me pEC50 reported for COC(=O)CC[C@@H]1[C@@H]2CCC[C@@]1(c1cccc(O)c1)CCN2CCc1ccccc1
6.49

Tell me pEC50 reported for OC/C=C/[C@H]1[C@@H]2CCC[C@@]1(c1cccc(O)c1)CCN2CCc1ccccc1
< 5.00

Tell me pEC50 reported for OCCC[C@@H]1[C@H]2CCC[C@]1(c1cccc(O)c1)CCN2CCc1ccccc1
< 5.00

Tell me pEC50 reported for CCOC(=O)CC[C@H]1[C@@H]2CCC[C@@]1(c1cccc(O)c1)CCN2CCc1ccccc1
7.45

Tell me pEC50 reported for Oc1cccc([C@@]23CCC[C@H]([C@H]2O)N(CCc2ccccc2)CC3)c1
6.49

Tell me pEC50 reported for OCCC[C@H]1[C@@H]2CCC[C@@]1(c1cccc(O)c1)CCN2CCc1ccccc1
< 5.00

Tell me pEC50 reported for COC(=O)/C=C/[C@H]1[C@@H]2CCC[C@@]1(c1cccc(O)c1)CCN2CCc1ccccc1
< 5.00

Tell me pEC50 reported for O=C(O)CC[C@H]1[C@@H]2CCC[C@@]1(c1cccc(O)c1)CCN2CCc1ccccc1
< 5.00
